Parameter: THP-1 TGI. Scope: all listed entries.
tested on: THP-1; assay: Cell growth inhibition assay (CellTiter-Glo), THP-1; format: cell-based, human; settings: THP-1 cells, 4 days, total growth inhibition

Use the examples below as a reference point.
Sure, the documented THP-1 TGI for Cc1cn(C2CCN(C)C2=O)c2c1C(=O)N(c1cc(C)c3nnc(C)n3c1)C2c1ccc(Cl)cc1 (stereo not shown) is 315.5 nM

THP-1 TGI in this record for Cc1cc(N2C(=O)c3c(C4CN(C)C4)cn(C)c3C2c2ccc(Cl)cc2)cn2c(C)nnc12 (stereo not shown) : 1810 nM

THP-1 TGI recorded for this compound, Cc1cc(N2C(=O)c3c(C(=O)N(C)C)cn(C)c3C2c2ccc(Cl)cc2)nc2c1nnn2C (stereo not shown) , is 29.85 nM

response.value for Cc1cc2c(n1C)C(c1ccc(Cl)cc1)N(c1cc(Cl)c(=O)n(C)c1)C2=O (stereo not shown) (field: THP-1 TGI) = 171.5 nM

What the record says about Cc1cc2c(n1C)[C@@H](c1ccc(Cl)cc1)N(c1cc(Cl)c(=O)n(C)c1)C2=O : THP-1 TGI is 167 nM

Continuing:
Documented THP-1 TGI of Cc1cn(CC(=O)N(C)C)c2c1C(=O)N(c1cc(C)c3nnc(C)n3c1)C2c1ccc(Cl)cc1 (stereo not shown) : 439.5 nM

CNC(=O)Nc1cn(C)c2c1C(=O)N(c1cc(C)c3nnn(C)c3c1)C2c1ccc(Cl)cc1 (stereo not shown) yielded THP-1 TGI of 105.2 nM

// recorded THP-1 TGI for CC(=O)Nc1cn(C)c2c1C(=O)N(c1cc(C)c3nnn(C)c3n1)C2c1ccc(Cl)cc1 (stereo not shown) : 21.25 nM

The reported THP-1 TGI of the compound CC(=O)Nc1cn(C)c2c1C(=O)N(c1cc(C)c3nnn(C)c3c1)C2c1ccc(Cl)cc1 (stereo not shown) was 30.35 nM

CCOC(=O)n1cc(C)c2c1C(c1ccc(Cl)cc1)N(c1cc(C)c3nnc(C)n3c1)C2=O (stereo not shown) yielded THP-1 TGI of 58.95 nM

The compound listed as Cc1cn(C2CN(C)C2)c2c1C(=O)N(c1cc(C)c3nnc(C)n3c1)C2c1ccc(Cl)cc1 (stereo not shown) has a reported THP-1 TGI of 36.2 nM

Consider Cn1c(-c2cccn(C)c2=O)cc2c1C(c1ccc(Cl)cc1)N(c1cc(Cl)c(=O)n(C)c1)C2=O (stereo not shown) . Its measured THP-1 TGI is 492 nM

###

Target or system UniProt Q15059; recorded quantity IC50.
// return numeric value only (unit: µM, not printed)

IC50 value, target or system UniProt Q15059, for Cn1cc(N2C(=O)c3cc(-c4cccc(=O)n4C)n(C4CC4)c3C2c2ccc(Cl)cc2)cc(Cl)c1=O (stereo not shown) : 0.13

Item: Cn1c(-c2ccn(C)c(=O)c2)cc2c1C(c1ccc(Cl)cc1)N(c1cc(Cl)c(=O)n(C)c1)C2=O (stereo not shown) | System: UniProt Q15059 | IC50: 0.0655

Entry Cc1cc(N2C(=O)c3cc(-c4cccc(=O)n4C)n(C)c3C2c2ccc(Cl)cc2)cn(C)c1=O (stereo not shown) : IC50 on UniProt Q15059 = 0.076

Here Cn1ccc2c1[C@@H](c1ccc(Cl)cc1)N(c1cc(Cl)c(=O)n(C)c1)C2=O was tested on UniProt Q15059, and its IC50 came to 0.0945

###

system: THP-1; experiment: Cell growth inhibition assay (CellTiter-Glo), THP-1; format: cell-based, human; conditions: THP-1 cells, 4 days, total growth inhibition
Value type: THP-1 TGI (nM)
Please state the figure in nM; there is no need to write the unit.

Please review the entries below; each comes with its answer.
Record summary for Cc1cn(C2CN(C)C2)c2c1C(=O)N(c1cc(C)c3nnn(C)c3n1)C2c1ccc(Cl)cc1 (centres unmarked) : reported THP-1 TGI = 38

Sure, the documented THP-1 TGI for COc1ncccc1-c1cc2c([nH]1)C(c1ccc(Cl)cc1)N(c1cc(C)c3nnc(C)n3c1)C2=O (centres unmarked) is 88

Recorded THP-1 TGI (compound COc1ncccc1-c1c(C2CC2)c2c(n1C)C(c1ccc(Cl)cc1)N(c1cc(C)c3nnc(C)n3c1)C2=O (centres unmarked) ): 5.503

THP-1 TGI reading for Cc1cc(N2C(=O)c3c(NC(=O)OC(C)(C)C)cn(C)c3C2c2ccc(Cl)cc2)cn2c(C)nnc12 (centres unmarked) : 118

***
Documented THP-1 TGI of Cc1cc(N2C(=O)c3cc(-c4ccc(=O)n(C)c4)n(C)c3C2c2ccc(Cl)cc2)cn(C)c1=O (centres unmarked) : 1070

###

molecular target: BRD3 (Homo sapiens (Human), UniProt Q15059)
Sequence (Q15059 20-477): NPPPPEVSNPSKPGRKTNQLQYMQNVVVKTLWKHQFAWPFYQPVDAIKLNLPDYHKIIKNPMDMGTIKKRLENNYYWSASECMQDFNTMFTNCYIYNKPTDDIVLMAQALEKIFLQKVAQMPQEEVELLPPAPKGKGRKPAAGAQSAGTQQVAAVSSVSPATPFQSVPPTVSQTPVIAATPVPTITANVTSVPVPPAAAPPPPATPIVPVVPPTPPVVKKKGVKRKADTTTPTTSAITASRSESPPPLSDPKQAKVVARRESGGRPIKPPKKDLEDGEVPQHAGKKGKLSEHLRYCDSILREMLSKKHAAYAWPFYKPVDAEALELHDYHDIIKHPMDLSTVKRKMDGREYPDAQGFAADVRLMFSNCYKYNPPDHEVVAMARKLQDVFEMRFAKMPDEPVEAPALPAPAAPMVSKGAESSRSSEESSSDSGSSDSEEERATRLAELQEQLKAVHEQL
Value type: pIC50
Lab note — pIC50 values are minus log10 of concentrations in M.

Param item: Cc1cc(N2C(=O)c3c(C4CC4)cn(C)c3C2c2ccc(Cl)cc2)cn2c(C)nnc12 (stereo not drawn) ; param system: BRD3 (Homo sapiens (Human), UniProt Q15059); output pIC50: 7.82

# value of pIC50, BRD3 (Homo sapiens (Human), UniProt Q15059), item CC(=O)Nc1cn(C)c2c1C(=O)N(c1cc(C)c3nnc(C(F)F)n3n1)C2c1ccc(Cl)cc1 (stereo not drawn) = 7.70

BRD3 (Homo sapiens (Human), UniProt Q15059) assay, molecule Cn1ccc2c1C(c1ccc(F)cc1)N(c1cc(Cl)c(=O)n(C)c1)C2=O (stereo not drawn) , recorded pIC50 = 6.72

Noted pIC50 for Cc1cc(N2C(=O)c3c(NC(=O)OC(C)(C)C)cn(C)c3C2c2ccc(Cl)cc2)nc2c1nnn2C (stereo not drawn) , tested on BRD3 (Homo sapiens (Human), UniProt Q15059): 7.59

# next molecule below
Simply: COc1cccc(C2c3c(ccn3C)C(=O)N2c2cc(C)c(=O)n(C)c2)c1 (stereo not drawn) , BRD3 (Homo sapiens (Human), UniProt Q15059), pIC50 = 6.25

###

tested on: MV-4-11
One threshold, 20 nM, splits the recorded GI50 values: lower ones are TRUE, equal or higher ones are FALSE.

## Input In the record for Cc1cn(C2CCN(C)C2=O)c2c1C(=O)N(c1cc(C)c3nnc(C)n3c1)C2c1ccc(Cl)cc1 (stereo not shown) , is GI50 less than 20 nM?
## Output FALSE

More entries:
## Input Just wondering, is GI50 of Cc1cc2c(n1C)C(c1ccc(Cl)cc1)N(c1cc(Cl)c(=O)n(C)c1)C2=O (stereo not shown) below 20 nM?
## Output FALSE

## Input Check if GI50 falls below 20 nM for Cc1ccc(C2c3c(ccn3C)C(=O)N2c2cc(Cl)c(=O)n(C)c2)cc1 (stereo not shown) .
## Output FALSE

## Input # check: GI50 < 20 nM for CC(=O)N1CC(n2cc(C)c3c2C(c2ccc(Cl)cc2)N(c2cc(C)c4nnc(C)n4c2)C3=O)C1 (stereo not shown)
## Output FALSE

## Input Find out if reported GI50 for CNC(=O)Nc1cn(C)c2c1C(=O)N(c1cc(C)c3nnn(C)c3c1)C2c1ccc(Cl)cc1 (stereo not shown) is less than 20 nM
## Output FALSE

## Input Say whether its GI50 is strictly beneath 20 nM. Entry: Cn1ccc2c1C(c1ccccc1)N(c1cc(Cl)c(=O)n(C)c1)C2=O (stereo not shown)
## Output FALSE

###

Parameter MV-4-11 TGI: see the listing below.
Tested on: MV-4-11
Test: Cell growth inhibition assay (CellTiter-Glo), MV-4-11
Assay type: cell-based, human
Conditions: MV-4-11 cells, 4 days, total growth inhibition
Procedure: Cell Growth Inhibition Assay The human leukemia cell lines MV-4-11, THP-1 and K-562 were employed to characterize the effect of BET inhibitors on cellular proliferation and viability. […] Compound-mediated suppression of cell proliferation/viability was assessed by quantification of cellular ATP levels using the CellTiter-Glo (CTG) reagent (Promega). […] Dose-response effects were assessed by 3-fold serial dilutions of the test compound, starting at 10 μM. […]
Provide the reading as a plain figure in nM.

// below: answered molecules
Recorded result, COc1cccc(C2c3c(ccn3C)C(=O)N2c2cc(Cl)c(=O)n(C)c2)c1 (stereo not shown) [Example 91] , MV-4-11 TGI: 641.5

The measured MV-4-11 TGI associated with CC(=O)Nc1cn(C)c2c1C(=O)N(c1cc(C)c3nnc(C(F)F)n3n1)C2c1ccc(Cl)cc1 (stereo not shown) [Example 109] reads 40.75

Input Cc1cn(C)c2c1C(=O)N(c1cc(C)c3nnn(C)c3c1)C2c1ccc(Cl)cc1 (stereo not shown) [Example 28] . Output MV-4-11 TGI: 26.35

// sample COc1ncccc1-c1cc2c([nH]1)C(c1ccc(Cl)cc1)N(c1cc(C)c3nnc(C)n3c1)C2=O (stereo not shown) [Example 27] , its MV-4-11 TGI was 37.7

The reported value for Cc1cc(N2C(=O)c3c(C(=O)N(C)C)cn(C)c3C2c2ccc(Cl)cc2)nc2c1nnn2C (stereo not shown) [Example 94] in terms of MV-4-11 TGI is 21.95

Continuing:
Memo: CNC(=O)c1cn(C)c2c1C(=O)N(c1cc(C)c3nnn(C)c3c1)C2c1ccc(Cl)cc1 (stereo not shown) [Example 98] , reported MV-4-11 TGI: 12.53

// Cc1cc(N2C(=O)c3c(C4CC4)cn(C4CN(C)C4)c3C2c2ccc(Cl)cc2)cn2c(C)nnc12 (stereo not shown) [Example 16] : MV-4-11 TGI value = 12.4

Entry under test: Cn1c(-c2ccn(C)c(=O)c2)cc2c1C(c1ccc(Cl)cc1)N(c1cc(Cl)c(=O)n(C)c1)C2=O (stereo not shown) [Example 41] . Its MV-4-11 TGI was 128

Entry Cc1cc(N2C(=O)c3cc(-c4cccn(C)c4=O)n(C4CC4)c3C2c2ccc(Cl)cc2)cn(C)c1=O (stereo not shown) [Example 65] — recorded MV-4-11 TGI = 128.5

Field MV-4-11 TGI (entry Cc1cc(N2C(=O)c3cc[nH]c3C2c2ccc(Cl)cc2)cn2c(C)nnc12 (stereo not shown) [Example 21] ) reads 81.05

MV-4-11 TGI reported for this molecule Cc1cc(N2C(=O)c3ccn(C)c3C2c2ccc(C#N)cc2)cn(C)c1=O (stereo not shown) [Example 83] : 636

// data source = patent US9550796B2
